Could you please report measured Binding affinity (OCTET) Kon for the items listed next?
measurement target: T1, AXLECDHis (extracellular domain of human AXL) (Homo sapiens, UniProt P30530)
T1 construct: the extracellular domain (ECD) of human AXL (aa 1-447) with a C-terminal His tag (AXLECDHis); His tag (C); made in house; host or cells: HEK-293F
T1 sequence (P30530 26-447): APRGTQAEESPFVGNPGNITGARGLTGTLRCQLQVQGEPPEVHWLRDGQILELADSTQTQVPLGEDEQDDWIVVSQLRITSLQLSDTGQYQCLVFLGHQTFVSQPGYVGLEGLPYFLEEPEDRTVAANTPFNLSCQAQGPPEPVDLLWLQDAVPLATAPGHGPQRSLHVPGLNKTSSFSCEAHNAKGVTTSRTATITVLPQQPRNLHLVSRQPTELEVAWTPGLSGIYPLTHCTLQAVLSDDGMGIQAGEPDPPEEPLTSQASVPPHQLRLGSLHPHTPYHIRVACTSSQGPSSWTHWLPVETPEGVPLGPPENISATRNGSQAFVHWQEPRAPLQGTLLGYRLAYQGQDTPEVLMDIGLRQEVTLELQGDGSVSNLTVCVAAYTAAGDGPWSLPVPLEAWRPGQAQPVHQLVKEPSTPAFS
assay comment: Binding affinity by Bio-Layer Interferometry (ForteBio OctetRED384)
assay conditions: 1:1 model, 30° C.
Give bare numbers, in M⁻¹ s⁻¹.

molecule: IgG1-AXL-511: AXL-specific human IgG1,κ antibody, VH SEQ ID NO:136, VL SEQ ID NO:140, Ig2 domain binding (antibody, listed as Homo sapiens, V domains shown) VH: EVQLLESGGGLVQPGGSLRLSCAASGFTFSSYAMNWVRQAPGKGLEWVSGISGSGGHTYHADSVKGRFTISRDNSKNTLYLQMNSLRAEDTAVYYCAKDRYDILTGYYNLLDYWGQGTLVTVSS VL: DIQMTQSPSSLSASVGDRVTITCRASQGISSWLAWYQQKPEEAPKSLIYAASSLQSGVPSRFSGSGSGTDFTLTISSLQPEDFATYYCQQYNSYPLTFGGGAKVEIK
reported result: 170000
//
molecule: IgG1-AXL-148: AXL-specific human IgG1,κ antibody, VH SEQ ID NO:5, VL SEQ ID NO:6, Ig2 domain binding (antibody, listed as Homo sapiens, V domains shown) VH: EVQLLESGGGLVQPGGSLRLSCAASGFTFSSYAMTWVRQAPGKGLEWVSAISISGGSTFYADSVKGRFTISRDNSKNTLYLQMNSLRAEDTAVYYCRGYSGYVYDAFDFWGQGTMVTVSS VL: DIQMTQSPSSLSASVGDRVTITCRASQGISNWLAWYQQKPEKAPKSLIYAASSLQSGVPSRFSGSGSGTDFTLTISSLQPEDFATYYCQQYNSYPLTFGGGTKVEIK
reported result: 230000

Moving on to the next molecule.
Any idea what Binding affinity (OCTET) Kon was measured for IgG1-AXL-726: AXL-specific human IgG1,κ antibody, VH SEQ ID NO:31, VL SEQ ID NO:33, FN2 domain binding (antibody, listed as Homo sapiens, V domains shown) VH: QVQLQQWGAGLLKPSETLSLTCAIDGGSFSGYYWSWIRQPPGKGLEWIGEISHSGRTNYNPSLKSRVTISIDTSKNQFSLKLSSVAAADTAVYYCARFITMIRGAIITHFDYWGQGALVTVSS VL: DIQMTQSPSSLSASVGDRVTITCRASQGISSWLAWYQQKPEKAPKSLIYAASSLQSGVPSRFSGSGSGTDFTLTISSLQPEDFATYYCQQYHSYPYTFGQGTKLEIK ?
240000
